Origin of values: patent US9765056B2

Target: Bcl-2 protein (histag-Bcl-2, UniProtKB P10415) (Homo sapiens (Human), UniProt P10415)
Sequence (P10415 whole entry): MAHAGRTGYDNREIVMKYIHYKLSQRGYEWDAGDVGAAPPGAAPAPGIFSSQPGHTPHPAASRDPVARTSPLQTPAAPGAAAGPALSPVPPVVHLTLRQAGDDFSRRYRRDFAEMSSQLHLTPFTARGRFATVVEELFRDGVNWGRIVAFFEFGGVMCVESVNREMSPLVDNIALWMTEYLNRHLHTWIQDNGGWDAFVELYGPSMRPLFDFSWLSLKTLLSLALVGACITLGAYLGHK
Test: Inhibition of Bcl-2 by the fluorescence polarisation technique
Type: binding
Conditions: fluorescence polarisation test; method A, or method B where underlined (underlining not visible); read-out: IC50 (nM) Bcl-2 FP
Where a name gives a salt, the structure may show the parent alone.
result.type: IC50
Please report the result as a number followed by the unit.

# IC50 measured on Bcl-2 protein (histag-Bcl-2, UniProtKB P10415) (Homo sapiens (Human), UniProt P10415) for item COc1cc(-n2cc(C(=O)N(c3ccccc3)c3ccc(F)cc3)c3ccccc32)c(C(=O)N2Cc3ccccc3C[C@H]2CN2CCN(C)CC2)cc1O [Example 190, dihydrochloride] = 13.6 nM

IC50 for Bcl-2 protein (histag-Bcl-2, UniProtKB P10415) (Homo sapiens (Human), UniProt P10415) with input COc1cc(C(=O)N2Cc3ccccc3C[C@H]2CN2CCN(C)CC2)c(-n2cc(C(=O)N(c3ccccc3)c3ccc(O)cc3)c3ccccc32)cc1Cl equals 37.4 nM

With Bcl-2 protein (histag-Bcl-2, UniProtKB P10415) (Homo sapiens (Human), UniProt P10415) as the test system, COc1cc(-n2cc(C(=O)N(c3ccccc3)c3ccc(O)cc3)c3ccccc32)c(C(=O)N2Cc3ccccc3C[C@H]2CN)cc1O showed IC50 of 12.2 nM

GET /values?item= CCCCN(CCCC)C(=O)c1cn(-c2ccc(NC(=O)COc3ccccc3)cc2C(=O)N2Cc3ccccc3C[C@H]2CN2CCN(C)CC2)c2ccccc12 &system= Bcl-2 protein (histag-Bcl-2, UniProtKB P10415) (Homo sapiens (Human), UniProt P10415) returns IC50: 155 nM

###

What IC50 was measured for each of the following?
Target: Bcl-2 protein (histag-Bcl-2, UniProtKB P10415) (Homo sapiens (Human), UniProt P10415)
Assay: Inhibition of Bcl-2 by the fluorescence polarisation technique
Assay type: binding
Settings: fluorescence polarisation test; method A, or method B where underlined (underlining not visible); read-out: IC50 (nM) Bcl-2 FP
Phrase the answer as number then unit, nothing more needed.

Measured IC50 of Cc1cc(C(=O)N(c2ccccc2)c2ccc(O)cc2)cn1-c1cc(O)ccc1C(=O)N1Cc2ccccc2C[C@H]1CN1CCN(C)CC1 [Example 17] : 11.4 nM

So for CCCCN(CCCC)C(=O)c1nn(-c2ccccc2C(=O)N2Cc3ccccc3C[C@H]2CN)c2ccccc12 [Example 121] , the logged IC50 turned out to be 448 nM

// field: IC50; key: CN1CCN(C[C@@H]2Cc3ccccc3CN2C(=O)c2ccc(Cl)cc2-n2cc(C(=O)N(c3ccc(O)cc3)c3ccc(F)cc3)c3ccccc32)CC1 [Example 75] ; value = 7.1 nM

Query Cc1cc(C(=O)N(c2ccc(O)cc2)c2ccc(Cl)cc2)cn1-c1cc(Br)ccc1C(=O)N1Cc2ccccc2C[C@H]1CN1CCN(C)CC1 [Example 62] yields IC50 of 7.5 nM

###

Test system: RS4;11 leukaemia tumour line
Experiment: In vitro cytotoxicity, Microculture Tetrazolium Assay (MTT)
Format: cell-based
Conditions: Homo sapiens; RS4;11 cells, 48 hours exposure
Protocol: The cytotoxicity studies were carried out on the RS4;11 leukaemia tumour line. The cells are distributed onto microplates and exposed to the test compounds for 48 hours. The cell viability is then quantified by a colorimetric assay, the Microculture Tetrazolium Assay (Cancer Res., 1987, 47, 939-942).
Where a name gives a salt, the structure may show the parent alone.
Hi there, I'd appreciate the recorded IC50 for every entry that follows.
// return numeric value only (unit: nM, not printed)

Noted for Cc1cc(C(=O)N(c2ccc(O)cc2)c2ccc3[nH]ccc3c2)cn1-c1cc(Cl)cc(Cl)c1C(=O)N1Cc2ccccc2C[C@H]1CN1CCN(C)CC1 [Example 92] : its IC50 reads 202

The molecule identified as Cc1ccc(N(C(=O)c2cc(C)n(-c3cc4c(cc3C(=O)N3Cc5ccccc5C[C@H]3CN3CCOCC3)OCO4)c2)c2ccc(O)cc2)cc1 [Example 106, hydrochloride] registered its IC50 at 521

// recorded IC50 for Cc1ccc(N(C(=O)c2cn(-c3cc(Cl)ccc3C(=O)N3Cc4ccccc4C[C@H]3CN3CCN(C)CC3)c3ccccc23)c2ccc(O)cc2)cc1 [Example 74] : 162

Note to self: IC50 recorded for CCCCN(CCCC)C(=O)c1nn(-c2ccccc2C(=O)N2Cc3ccccc3C[C@H]2CN)c2ccccc12 [Example 121] was 8770

Measured IC50, O=C(c1cn(-c2cc3c(cc2C(=O)N2Cc4ccccc4C[C@H]2CN2CCOCC2)OCO3)c2c1CCCC2)N(c1ccccc1)c1ccc(O)cc1 [Example 113, hydrochloride] : 203

Reported IC50 of Cc1cc(C(=O)N(c2ccccc2)c2ccc(O)cc2)cn1-c1ccc(Cl)cc1C(=O)N1Cc2ccccc2C[C@H]1CN1CCN(C)CC1 [Example 25] : 1100

Cc1cc(C(=O)N(c2ccc(O)cc2)c2ccc3c(ccn3CCN3CCOCC3)c2)cn1-c1cc2c(cc1C(=O)N1Cc3ccccc3C[C@H]1C)OCO2 [Example 116, hydrochloride] has a reported IC50 of 131

Notebook: COc1ccc(C(=O)N2Cc3ccccc3C[C@H]2CN2CCCCC2)c(-n2cc(C(=O)N(c3ccccc3)c3ccc(O)cc3)c3ccccc32)c1 [Example 169, hydrochloride] , IC50 read as 854

GET /value?item= Cc1cc(C(=O)N(c2ccccc2)c2ccc(O)cc2)cn1-c1cc(O)ccc1C(=O)N1Cc2ccccc2C[C@H]1CN1CCN(C)CC1 [Example 17] &field=IC50 returns 1010

Reported IC50 for CN(C)C[C@@H]1Cc2ccccc2CN1C(=O)c1ccccc1-n1cc(C(=O)N(c2ccccc2)c2ccc(O)cc2)c2ccccc21 [Example 143] was 533

response.value for NC[C@@H]1Cc2ccccc2CN1C(=O)c1cc(NC(=O)CSc2ccccc2)ccc1-n1nc(C(=O)N(c2ccccc2)c2ccccc2)c2ccccc21 [Example 149] (field: IC50) = 340

Noted for CN1CCN(C[C@@H]2Cc3ccccc3CN2C(=O)c2ccc(Cl)cc2-n2cc(C(=O)N(c3ccc(O)cc3)c3ccc(Cl)cc3)c3ccccc32)CC1 [Example 76] : its IC50 reads 151

The molecule Cc1ccc(N(C(=O)c2cn(-c3cc4c(cc3C(=O)N3Cc5ccccc5C[C@H]3CN3CCN(C)CC3)OCO4)c3ccccc23)c2ccc(O)cc2)cc1 [Example 32] showed IC50 equal to 63.7
